Ref: ChEMBL document CHEMBL1201861

Test system: LAN-6;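 further: growth inhibition of LAN-6 cells, determined with a cell viability assay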
protocol_description: cells
Assay type: functional, cell-based, Homo sapiens
condition_label: Homo sapiens, LAN-6
Description: SANGER: Inhibition of human LAN-6 cell growth in a cell viability assay.
Let's look at some compounds and their measured IC50.

Task: Look up IC50 for this compound: C=C1C(=O)O[C@@H]2C3O[C@]3(C)CC/C=C(\C)CC[C@@H]12 (stereo partly drawn)
Output: > 5 µM

Task: Requested field: IC50. Item: O=C(c1cc(Cc2n[nH]c(=O)c3ccccc23)ccc1F)N1CCN(C(=O)C2CC2)CC1 [OLAPARIB]
Output: > 5 µM

Task: Please give the measured IC50 for this compound: C=CCNC1=C2C[C@@H](C)C[C@H](OC)[C@H](O)[C@@H](C)/C=C(\C)[C@H](OC(N)=O)[C@@H](OC)/C=C\C=C(/C)C(=O)NC(=CC1=O)C2=O [TANESPIMYCIN]
Output: > 1 µM

Task: Please report the recorded IC50 for O=c1cc(-c2cccc3c2Sc2ccccc2S3)oc(N2CCOCC2)c1 [KU-55933] .
Output: > 10 µM

Task: # query: IC50 of entry Cc1cc(Nc2cc(N3CCN(C)CC3)nc(Sc3ccc(NC(=O)C4CC4)cc3)n2)n[nH]1 [TOZASERTIB]
Output: > 2 µM

====

System: 5637
protocol_description: cells
Type: functional, cell-based, Homo sapiens
condition_label: Homo sapiens
Description: SANGER: Inhibition of human 5637 cell growth in a cell viability assay.
pIC50: −log10 of the molar value.
property_measured: pIC50

[
  {
    "input_smiles": "CN(c1ncccc1CNc1nc(Nc2ccc3c(c2)CC(=O)N3)ncc1C(F)(F)F)S(C)(=O)=O",
    "test_value": "< 5.59"
  },
  {
    "input_smiles": "Cn1cncc1[C@@](N)(c1ccc(Cl)cc1)c1ccc2c(c1)c(-c1cccc(Cl)c1)cc(=O)n2C",
    "test_value": 5.99
  },
  {
    "input_smiles": "CN(C)C/C=C/C(=O)Nc1cc2c(Nc3ccc(F)c(Cl)c3)ncnc2cc1O[C@H]1CCOC1",
    "test_value": "< 6.30"
  }
]

Now for the compound whose pIC50 we want.
Task: Please report the recorded pIC50 for Cc1cc([C@@H](C)Nc2ccccc2C(=O)O)c2nc(N3CCOCC3)cc(=O)n2c1 .
Output: < 5.29

====

Test system: NCI-H1651;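 further: Read-out is a cell viability assay, with IC50 expressing inhibition of NCI-H1651 cell growth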
protocol_description: cells
Format: functional, cell-based, Homo sapiens
condition_label: Homo sapiens, NCI-H1651
Description: SANGER: Inhibition of human NCI-H1651 cell growth in a cell viability assay.
pIC50: −log10 of the molar value.
property_measured: pIC50

Please review the entries below; each comes with its answer.
[
  {
    "compound": "COc1cc([C@@H]2c3cc4c(cc3[C@@H](O[C@@H]3O[C@@H]5CO[C@@H](C)O[C@H]5[C@H](O)[C@H]3O)[C@H]3COC(=O)[C@H]23)OCO4)cc(OC)c1O [ETOPOSIDE]",
    "test_value": "< 4.80"
  },
  {
    "compound": "O=C(c1cc(Cc2n[nH]c(=O)c3ccccc23)ccc1F)N1CCN(C(=O)C2CC2)CC1",
    "test_value": "< 5.30"
  },
  {
    "compound": "C=CCc1cccc(/C=N/NC(=O)CN2CCN(Cc3ccccc3)CC2)c1O",
    "test_value": "< 5.59"
  }
]

Task: Which measured pIC50 value corresponds to CC(=O)O[C@@H]1[C@@H](OC(C)=O)[C@@H](O)[C@H](Oc2c(-c3ccc(O)cc3)oc3cc(O)cc(O)c3c2=O)O[C@H]1C ?
Output: < 5.00

Task: Field request: pIC50 | item: COc1cc(F)c(F)c(Nc2ccc(I)cc2F)c1NS(=O)(=O)C1(CC(O)CO)CC1 (configuration not stated)
Output: < 5.30

Task: What measured pIC50 goes with Cn1cc(C2=C(c3ccc(Cl)cc3Cl)C(=O)NC2=O)c2ccccc21 ?
Output: < 5.00

Task: Which measured pIC50 value corresponds to O=C(NOCC1CC1)c1ccc(F)c(F)c1Nc1ccc(I)cc1Cl ?
Output: < 5.00

====

Test system: AN3-CA;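 further: growth inhibition of human AN3-CA cells measured by a cell viability assay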
protocol_description: cells
Type: functional, cell-based
condition_label: Homo sapiens
Description: SANGER: Inhibition of human AN3-CA cell growth in a cell viability assay.
Measured IC50, listed per entry for reference.
// units = µM; emit number, no label

Task: Could you tell me which IC50 is on file for O=C(NOCC1CC1)c1ccc(F)c(F)c1Nc1ccc(I)cc1Cl [CI-1040] ?
Output: 6.69

Task: What does the record list as IC50 for CCC1=C[C@@H]2CN(C1)Cc1c([nH]c3ccccc13)[C@@](C(=O)OC)(c1cc3c(cc1OC)N(C)[C@H]1[C@@](O)(C(=O)OC)[C@H](OC(C)=O)[C@]4(CC)C=CCN5CC[C@]31[C@@H]54)C2 [VINORELBINE] ?
Output: 0.00627

Task: For the compound shown here, COC(=O)CNC(=O)C(=O)OC , give the reported IC50.
Output: 209

Task: Give the measured IC50 of Cn1cncc1[C@@](N)(c1ccc(Cl)cc1)c1ccc2c(c1)c(-c1cccc(Cl)c1)cc(=O)n2C [TIPIFARNIB] .
Output: 1

====

Collected IC50 values appear next to each entry.
Test system: SBC-1
protocol_description: cells
Type: functional, cell-based
condition_label: Homo sapiens
Description: SANGER: Inhibition of human SBC-1 cell growth in a cell viability assay.

[
  {
    "compound": "CC(=O)O[C@@]12CO[C@@H]1C[C@H](O)[C@@]1(C)C(=O)[C@H](O)C3=C(C)[C@@H](OC(=O)[C@H](O)[C@@H](NC(=O)OC(C)(C)C)c4ccccc4)C[C@@](O)([C@@H](OC(=O)c4ccccc4)[C@H]21)C3(C)C [DOCETAXEL]",
    "test_value": "0.43 nM"
  }
]

Task: Requested read-out IC50, target or system SBC-1, entry CO[C@H]1C[C@@H]2CC[C@@H](C)[C@@](O)(O2)C(=O)C(=O)N2CCCC[C@H]2C(=O)O[C@H]([C@H](C)C[C@@H]2CC[C@@H](O)[C@H](OC)C2)CC(=O)[C@H](C)/C=C(\C)[C@@H](O)[C@@H](OC)C(=O)[C@H](C)C[C@H](C)/C=C/C=C/C=C/1C [SIROLIMUS]
Output: > 100 nM

Task: Lookup: IC50 / SBC-1 / COc1ccc(C2=N[C@@H](c3ccc(Cl)cc3)[C@@H](c3ccc(Cl)cc3)N2C(=O)N2CCNC(=O)C2)c(OC(C)C)c1 [NUTLIN-3]
Output: > 8000 nM

Task: Lab request: please report IC50 under test system SBC-1 for O=C1N=C(NCc2cccs2)S/C1=C\c1ccc2ncccc2c1
Output: > 5000 nM

Task: Find the measured IC50: item CS(=O)(=O)CCNCc1ccc(-c2ccc3ncnc(Nc4ccc(OCc5cccc(F)c5)c(Cl)c4)c3c2)o1 [LAPATINIB] , target or system SBC-1.
Output: > 2000 nM

Task: Find the measured IC50: item CN(c1ncccc1CNc1nc(Nc2ccc3c(c2)CC(=O)N3)ncc1C(F)(F)F)S(C)(=O)=O [PF-00562271] , target or system SBC-1.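 Further: cell viability assay measuring growth inhibition of the SBC-1 cell line, IC50 being the concentration that halves growth.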
Output: > 2560 nM

Task: Notebook: pull reported IC50 for SBC-1, entry Cn1cc(C2=C(c3ccc(Cl)cc3Cl)C(=O)NC2=O)c2ccccc21 [SB-216763]
Output: > 10000 nM

====

compounds and their reported IC50
Test system: KYSE-150 cell line;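 further: growth inhibition of human KYSE-150 cells, read out with a cell viability assay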
protocol_description: cells
Assay type: functional, cell-based, Homo sapiens
condition_label: Homo sapiens, KYSE-150
Description: SANGER: Inhibition of human KYSE-150 cell growth in a cell viability assay.
Just the number please, in µM, no unit attached.

[
  {
    "compound": "CN(c1ncccc1CNc1nc(Nc2ccc3c(c2)CC(=O)N3)ncc1C(F)(F)F)S(C)(=O)=O [PF-00562271]",
    "unit_string": "µM",
    "test_value": 1.35
  },
  {
    "compound": "CN(Cc1cnc2nc(N)nc(N)c2n1)c1ccc(C(=O)N[C@@H](CCC(=O)O)C(=O)O)cc1 [METHOTREXATE]",
    "unit_string": "µM",
    "test_value": 0.115
  },
  {
    "compound": "COc1ccc(-c2ccc3c(N4CCOC[C@@H]4C)nc(N4CCOC[C@@H]4C)nc3n2)cc1CO [AZD-8055]",
    "unit_string": "µM",
    "test_value": 0.662
  }
]

Task: Name the recorded IC50 for COC(=O)CNC(=O)C(=O)OC .
Output: 1330

Task: Recorded IC50 for COc1cc([C@@H]2c3cc4c(cc3[C@@H](O[C@@H]3O[C@@H]5CO[C@@H](C)O[C@H]5[C@H](O)[C@H]3O)[C@H]3COC(=O)[C@H]23)OCO4)cc(OC)c1O [ETOPOSIDE] , please?
Output: 0.53

====

System: EW-13
protocol_description: cells
Format: functional, cell-based
condition_label: Homo sapiens
Description: SANGER: Inhibition of human EW-13 cell growth in a cell viability assay.
property_measured: IC50

# example entries with known answers
[
  {
    "input_smiles": "Nc1ccn([C@@H]2O[C@H](CO)[C@@H](O)[C@@H]2O)c(=O)n1",
    "test_value": "1.98 µM"
  },
  {
    "input_smiles": "C[C@]1(O)C[C@@H](c2nc(-c3ccc4ccc(-c5ccccc5)nc4c3)c3c(N)nccn32)C1",
    "test_value": "> 2.56 µM"
  },
  {
    "input_smiles": "Cc1ccc(Nc2nccc(N(C)c3ccc4c(C)n(C)nc4c3)n2)cc1S(N)(=O)=O",
    "test_value": "> 8 µM"
  },
  {
    "input_smiles": "CC1=C2C[C@H]3[C@@H](CC=C4C[C@@H](O)CC[C@@]43C)[C@@H]2CC[C@]12O[C@@H]1C[C@H](C)CN[C@H]1[C@H]2C",
    "test_value": "> 16 µM"
  }
]

Task: Entry COc1ccc(-c2ccc3c(N4CCOC[C@@H]4C)nc(N4CCOC[C@@H]4C)nc3n2)cc1CO has what IC50?
Output: > 2 µM
